Test system: 786-0 renal
Assay Procedure: NCI tumour cell line growth inhibition, 48 h
For each record, write down the corresponding GI50.

Solved cases (3 shown):
COc1cc(N=Nc2ccc(O)c3ncccc23)c2ncccc2c1: 3430 nM
Cc1cc(N[C@@H]2CCC[C@H](Nc3ccnc4cc(Cl)ccc34)C2)nc(N2CCCCCC2)n1: 1470 nM
COc1ccc2nc3ccccc3c(NCc3ccc(F)cc3)c2c1: 1870 nM

Quick one: GI50 for CCCC(=O)Nc1cn(COC)c(C(=O)N2C[C@@H]3C[C@]34C2=CC(=O)c2[nH]cc(C)c24)n1 ?
3140 nM

###

System: RXF 393 renal
Assay Procedure: NCI tumour cell line growth inhibition, 48 h
Property Measured: TGI

For orientation, consider the following solved cases.
O=C(c1ccco1)c1c(C(F)(F)F)nc2ccc(Cl)cc2[n+]1[O-]: > 100 µM
CCOC(=O)N[C@H]1CCc2cc(OC)c(OC)c(OC)c2-c2ccc(SC)c(=O)cc21: > 100 µM
O=C(CCn1ccnc1[N+](=O)[O-])NCCCn1ccnc1[N+](=O)[O-]: > 100 µM
NNC(=O)CNc1cccc(Br)c1: > 100 µM

Batch request: TGI per item, same order as input.
1. C=CCn1c(=O)c(C(=O)Nc2nc(C34CC5CC(CC(C5)C3)C4)cs2)c(O)c2ccccc21
2. COc1cc(N(CCC#N)CCC#N)ccc1/C(N=Nc1ccc(Cl)cc1)=N/NC(=O)c1cc(Br)ccc1O
3. COC(=O)/C(C#N)=C1\N=NNN1c1ccc(OC)cc1

> 100 µM
> 150 µg/mL
> 100 µM

###

Tested on: BT-549 breast
Assay Procedure: NCI tumour cell line growth inhibition, 48 h
Property Measured: TGI

COC(=O)c1ccc2c(c1)C(=O)c1c-2n(CCCN=[N+]=[N-])c(=O)c2cc(OC)c(OC)cc12: > 100 µM
CCCCCC#CCOC(=O)C(=[N+]=[N-])P(=O)(c1ccccc1)c1ccccc1: > 10 µM
Oc1cc(Cl)cc2cccnc12: > 91.1 µM

Hi! Can you tell me TGI for each of these compounds?
1. Clc1cc2c(c(CSc3nc4ccccc4n4cccc34)c1)OCOC2
2. Nc1ccc(N=Nc2c(S(=O)(=O)O)cc3ccccc3c2S(=O)(=O)O)cc1
3. CCOC(=O)Nc1cc2c(c(N)n1)N=C(c1ccccc1)CO2
4. Cc1nc(C)c(N2CCN([N+](=O)[O-])CC2)c(=O)[nH]1
5. N#C/C(=C\c1ccc2ccccc2c1)C(=O)c1ccccc1

> 100 µM
> 100 µM
> 100 µM
> 100 µM
> 100 µM

Below are some compounds; for each one, tell me its TGI.
1. CC1(C)[C@@H]2CC[C@@]1(C)CN(CCC[N+](C)(C)C)C2
2. COC(=O)c1c2c(c(C)[n+]([O-])c1C)C(=O)C=C(NCc1ccc(F)cc1)C2=O
3. C/C(=N\N=C1/C(=O)OC(c2ccccc2)=C1C(=O)c1ccccc1)c1ccc([N+](=O)[O-])cc1

1: > 100 µM; 2: 2.63 µM; 3: 72.6 µM

Each of the following entries comes with a recorded value; kindly state TGI for each.
1. C/C(C[n+]1ccccc1)=N\N=C(N)N
2. O=[N+]([O-])C(=C(Nc1cccc2cccnc12)Nc1cccc2cccnc12)C(Cl)=C(Cl)Cl
3. C=C(C(=O)OCC)C(=O)OCC
4. COc1cc(N=Nc2ccc(O)c3ncccc23)c2ncccc2c1
5. Cc1cc(N[C@@H]2CCC[C@H](Nc3ccnc4cc(Cl)ccc34)C2)nc(N2CCCCCC2)n1
6. CCC[CH2][Sn]([CH2]CCC)([O]C(=O)c1ccc(OC)c(OC)c1OC)[O][Sn]([CH2]CCC)([CH2]CCC)[O]C(=O)c1ccc(OC)c(OC)c1OC
7. CCN(CC)CCNc1nc(N)c(C#N)c(C#N)c1C#N
8. O=C(O)CN1CCNCCN(CC(=O)O)CCN(CC(=O)O)CCNCC1

1. > 100 µM
2. > 100 µM
3. > 100 µM
4. > 100 µM
5. 3.75 µM
6. 1.15 µM
7. > 10 µM
8. > 100 µM

###

Test system: MALME-3M melanoma
Assay Procedure: NCI tumour cell line growth inhibition, 48 h
Property Measured: TGI

CSC1=N/C(=C\c2ccc(C)cc2)C(=O)N1CN1CCCCC1: > 100 µM
CCNC(=S)NNC(=O)C12CC3CC(CC(C3)C1)C2: > 100 µM
COC(=O)c1ccc2c(c1)C(=O)c1c-2n(CCCN=[N+]=[N-])c(=O)c2cc(OC)c(OC)cc12: > 100 µM
CCOS(C)(=O)=O: > 100 µM
Cc1ccc(/C=N\NC2c3cc(Cl)ccc3Nc3nc(=O)[nH]c(C)c32)cc1 (stereo not given): > 100 µM
COC(C)(C)C1(O)CC[C@@H](C)CC1=O (stereo not given in full): > 100 µM
CC12CCC(=O)C[C@H]1CCC(OC=O)C2Br (stereo not given in full): > 100 µM
Cc1cc2c(=O)c3ccccc3[nH]c2c(C(N)=O)c1C: > 100 µM

Field: TGI. Fill in for each record below.
1. CSc1nc(SC)c2c(C#N)[nH]nc2n1
2. CC(O)CNC(=O)C(C)Oc1ccc(OCC2CCCCC2)cc1 (stereo not given)
3. O=C(CCn1ccnc1[N+](=O)[O-])NCCCn1ccnc1[N+](=O)[O-]

["> 100 µM", "> 100 µM", "> 100 µM"]

For every item in the list below, what is its measured TGI?
1. O=C1CC2(CCC(O)(c3ccc4ccccc4c3)C(C(=O)c3ccc4ccccc4c3)C2)C(=O)c2ccccc2N1 (stereo not given)
2. CCn1c(O)c(/C=N/NC(=O)C(C)c2ccc(CC(C)C)cc2)sc1=S (stereo not given)
3. O=C1c2ccccc2C(=O)N1n1c(Cc2ccc([N+](=O)[O-])cc2)n[nH]c1=O
4. C=CCc1cc(-c2nc(=S)[nH][nH]2)ccc1N=NNc1ccc(C(=O)O)cc1
5. O=P(O)(O)C(N=C(Nc1ccccc1)Nc1ccccc1)P(=O)(O)O
6. O=C(O)COc1ccccc1C(=O)Nc1ccccc1
7. CCCCCC#CCOC(=O)C(=[N+]=[N-])P(=O)(c1ccccc1)c1ccccc1
8. O=C(Cc1ccc(F)c(Cl)c1)Nc1cc(C2(C(F)(F)F)CC2)nn1CC1CCCCC1

> 100 µM
> 43 µM
> 100 µM
> 100 µM
> 100 µM
> 100 µM
> 10 µM
8.06 µM

Hello, I would appreciate it if you could give TGI for each entry below.
1. COc1ccc(N2C(=O)CC(=O)N(NC(=O)C(C)Oc3ccccc3C)C2=S)cc1 (stereo not given)
2. C=C1C(=O)CC2C1CC(=O)/C(C)=C/CCC(C)(O)C2O (stereo not given)

1. > 100 µM
2. 3.01 µM

Hey, can you go through the list below and give me TGI for every item?
1. N#CC(C(=O)/C(=N\NC(N)=O)C(C#N)c1ccc(Cl)cc1)c1ccc(Cl)cc1 (stereo not given)
2. CN(C)C(=S)/N=c1\sn(C)/c(=N\C(=S)N(C)C)n1C
3. O=C(CC1C(=O)Nc2ccccc2S1=O)Nc1cc(Cl)ccc1Cl (stereo not given)
4. CC(NC(=O)Cc1ccccc1)NC(=O)C(C)C(=O)Nc1ccccc1 (stereo not given)

> 100 µM
75.7 µM
> 100 µM
> 100 µM

Dear colleague, could you send me TGI for each of the items below? Thanks.
1. CC(NCCC(c1ccccc1)c1ccccc1)c1ccccc1 (stereo not given)
2. C=CCn1c(=O)c(C(=O)Nc2nc(C34CC5CC(CC(C5)C3)C4)cs2)c(O)c2ccccc21
3. C[C@@H]1C[C@@H]([C@@H](CC2CC(=O)NC(=O)C2)OC(=O)CC(=O)c2ccccc2)C(=O)[C@@H](C)C1
4. COc1ccc2nc3ccccc3c(NCc3ccc(F)cc3)c2c1
5. COc1ccc(-c2nc(SCC(=O)NNC(=S)Nc3ccccc3)[nH]c2-c2ccc(OC)cc2)cc1

1: 3.44 µM; 2: > 100 µM; 3: 13.6 µM; 4: 5.38 µM; 5: > 100 µM

###

System: NCI-H226 lung
Assay Procedure: NCI tumour cell line growth inhibition, 48 h
Exercise: for every item that follows, state its recorded TGI.

COC(=O)c1ccc2c(c1)C(=O)c1c-2n(CCCN=[N+]=[N-])c(=O)c2cc(OC)c(OC)cc12: > 100 µM
CC1(C)CC(=O)C(C(CC(c2ccccc2)c2cc3c(cc2O)OCO3)C2=C(O)CC(C)(C)CC2=O)=C(O)C1 (stereo not given): > 10 µM
O=C1c2cc(-c3ccccc3)cnc2S(=O)(=O)N1c1ccc(Br)cc1: > 100 µM

Provide TGI values for the following items, in order.
1. O=C(Cc1ccc(F)c(Cl)c1)Nc1cc(C2(C(F)(F)F)CC2)nn1CC1CCCCC1
2. O=C1NC(N2CCOCC2)=N/C1=C\c1ccco1
3. N[C@@H](Cc1ccccc1)C(=O)N1CCC[C@@H]1P(=O)(Oc1ccccc1)Oc1ccccc1
4. Cc1cc2c(=O)c3ccccc3[nH]c2c(C(N)=O)c1C
5. NCCCN1c2ccccc2Sc2ccc(Cl)cc21

["> 15 µM", "> 100 µM", "> 100 µM", "> 100 µM", "> 10 µM"]

Below are some molecules; for each one, tell me its TGI.
1. Cc1c(O)nc(-n2[nH]c3c(c2=O)CCCC3)[nH]c1=O
2. COc1ccc(N2C(=O)CC(=O)N(NC(=O)C(C)Oc3ccccc3C)C2=S)cc1 (stereo not given)

1: > 100 µM; 2: > 100 µM
